Target: UniProt P04585
QUANTITY_MEASURED: IC50

INSERT INTO results (compound, recorded_measurement) VALUES
  ('C=C(C=O)C1CC2(C)C(=CC1=O)C(OC(=O)C(C)=CC(C)CCCC)CCC2C(=O)O (stereo not shown)', '5 to 10 µM');
